Ref: patent US7521442B2

Molecular target: HCV NS5B RdRp genotype 1b (Hepatitis C virus genotype 1b)
Construct: The protein was expressed with an 18 amino acid C-terminal truncation to enhance the solubility
Sequence (Q9WMX2 2420-2992): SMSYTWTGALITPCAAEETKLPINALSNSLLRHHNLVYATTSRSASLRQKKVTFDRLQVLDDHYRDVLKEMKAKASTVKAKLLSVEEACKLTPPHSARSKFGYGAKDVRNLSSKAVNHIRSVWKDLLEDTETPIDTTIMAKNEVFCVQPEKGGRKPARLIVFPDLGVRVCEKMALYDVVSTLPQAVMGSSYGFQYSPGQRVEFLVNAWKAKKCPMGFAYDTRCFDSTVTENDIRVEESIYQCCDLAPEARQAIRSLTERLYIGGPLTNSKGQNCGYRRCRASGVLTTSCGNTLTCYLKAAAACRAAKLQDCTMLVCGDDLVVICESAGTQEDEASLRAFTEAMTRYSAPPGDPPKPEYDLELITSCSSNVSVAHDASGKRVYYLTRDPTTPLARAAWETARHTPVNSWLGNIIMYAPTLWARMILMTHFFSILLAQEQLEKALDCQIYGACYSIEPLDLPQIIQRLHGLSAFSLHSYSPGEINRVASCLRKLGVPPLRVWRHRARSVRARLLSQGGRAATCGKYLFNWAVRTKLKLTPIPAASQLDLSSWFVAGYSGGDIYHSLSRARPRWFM
Assay: Modified HCV NS5B RdRp enzyme assay (preincubation protocol)
Provide the reported IC50 of each item.

Check out these entries, answers already filled in.
Query: Identify IC50 associated with the compound COc1ccc2c(c1)C1CC1(C(=O)N1CC(C)(O)C1)Cn1c-2c(C2CCCCC2)c2ccc(C(=O)NS(=O)(=O)N(C)C)cc21 (stereo not drawn)
Reply: < 20 nM

Query: Identify IC50 associated with the compound COc1ccc2c(c1)C1CC1(C(=O)N1CC(O)C1)Cn1c-2c(C2CCCCC2)c2ccc(C(=O)NS(=O)(=O)N(C)C)cc21 (stereo not drawn) [drawing 17]
Reply: 1 to 500 nM

# context switch: different compound, same IC50
Query: Identify IC50 associated with the compound COc1ccc2c(c1)C1CC1(C(=O)N1CC(O)C1)Cn1c-2c(C2CCCCC2)c2ccc(C(=O)NS(=O)(=O)C3CC3)cc21 (stereo not drawn) [drawing 16]
Reply: 1 to 500 nM
